# activity, negative = cell killing annotations
- experimentSummary: Drug repurposing screens with cells derived from glioblastoma tumor samples (AID 1345199); further: on the % scale 0 is the no-effect control and ±100 the full control effect; nearly all actives have a fitted effect of over 40% in size
- conditionInfo: GBM patient neurospheres viability, ATP luminescence, 48 h; at 45.9 µM (top of the series); tumour line B
Inconclusive results are not listed.
Record the value in %, omitting the unit from your answer.

Past entries and their recorded results:
# compound, valueMeasured
records = [
    ("CCOc1ccc(NC(C)=O)cc1", 4.81),
    ("N#C/C(=C1\\SCC(c2ccccc2Cl)S1)n1ccnc1 (stereo not given)", -11.6),
]

Look up activity, negative = cell killing for this compound: CO[C@]12C[C@@H](COC(=O)c3cncc(Br)c3)CN(C)[C@@H]1Cc1cn(C)c3cccc2c13
-27.1

Look up activity, negative = cell killing for this compound: CCN1CCN(C(=O)N[C@@H](C(=O)N[C@@H]2C(=O)N3C(C(=O)O)=C(CSc4nnnn4C)CS[C@H]23)c2ccc(O)cc2)C(=O)C1=O
-8.4

Look up activity, negative = cell killing for this compound: C=C[C@@]1(C)CC(=O)[C@]2(O)[C@@]3(C)[C@@H](O)CCC(C)(C)[C@@H]3[C@H](O)[C@H](OC(C)=O)[C@@]2(C)O1
7.18

Look up activity, negative = cell killing for this compound: Cc1cc(NS(=O)(=O)c2ccc(N)cc2)nc(C)n1
-14.8

Look up activity, negative = cell killing for this compound: CCCCCCCCOc1ccc(C(=O)c2ccccc2)c(O)c1
-18.7

Look up activity, negative = cell killing for this compound: CC(C)(C)NC[C@H](O)COc1nsnc1N1CCOCC1
-9.83

Look up activity, negative = cell killing for this compound: OCc1ccccn1
-0.907

Look up activity, negative = cell killing for this compound: OC[C@H]1O[C@@H]2O[C@H]3[C@H](O)[C@@H](O)[C@@H](O[C@H]4[C@H](O)[C@@H](O)[C@@H](O[C@H]5[C@H](O)[C@@H](O)[C@@H](O[C@H]6[C@H](O)[C@@H](O)[C@@H](O[C@H]7[C@H](O)[C@@H](O)[C@@H](O[C@H]8[C@H](O)[C@@H](O)[C@@H](O[C@H]1[C@H](O)[C@H]2O)O[C@@H]8CO)O[C@@H]7CO)O[C@@H]6CO)O[C@@H]5CO)O[C@@H]4CO)O[C@@H]3CO
-11.6

---

- targetDesc: Glucocorticoid receptor (Homo sapiens) (UniProt P04150)
- Sequence (P04150 whole entry, looked up): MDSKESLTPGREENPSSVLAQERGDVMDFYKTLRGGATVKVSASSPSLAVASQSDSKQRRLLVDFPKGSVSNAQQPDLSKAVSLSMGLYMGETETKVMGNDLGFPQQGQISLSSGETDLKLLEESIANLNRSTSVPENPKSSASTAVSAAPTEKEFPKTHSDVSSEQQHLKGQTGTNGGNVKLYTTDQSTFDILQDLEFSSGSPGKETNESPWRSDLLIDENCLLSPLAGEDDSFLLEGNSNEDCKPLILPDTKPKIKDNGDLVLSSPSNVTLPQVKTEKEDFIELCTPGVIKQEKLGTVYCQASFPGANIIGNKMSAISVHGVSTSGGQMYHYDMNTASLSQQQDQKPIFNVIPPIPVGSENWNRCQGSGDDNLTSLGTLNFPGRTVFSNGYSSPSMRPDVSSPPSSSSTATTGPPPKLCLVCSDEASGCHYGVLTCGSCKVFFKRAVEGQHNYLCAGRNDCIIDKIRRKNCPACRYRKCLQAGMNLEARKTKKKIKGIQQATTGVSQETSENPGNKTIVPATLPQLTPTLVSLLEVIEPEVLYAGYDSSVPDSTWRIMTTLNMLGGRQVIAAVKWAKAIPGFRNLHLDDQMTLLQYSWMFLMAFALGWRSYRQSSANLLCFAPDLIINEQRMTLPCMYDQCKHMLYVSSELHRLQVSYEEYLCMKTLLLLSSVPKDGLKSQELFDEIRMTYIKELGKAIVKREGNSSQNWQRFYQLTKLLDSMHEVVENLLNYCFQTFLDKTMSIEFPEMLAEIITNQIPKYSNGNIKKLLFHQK
- experimentSummary: GR-GFP Redistribution (AID 450)
- conditionInfo: U2OS GR-GFP nuclear translocation, laser cytometry, 2 h
Active and inactive are the calls of the source.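 The calls were made as follows: active = compounds whose dose series gives a full or clear partial fitted curve of increased nuclear translocation; inconclusive = weak partial curve or effect only at the top dose; inactive = no dose-dependent translocation response.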
# output must be one of active, inactive

Here are 5 compounds together with their reported answers.
# compound, categoryLabel
data = [
    ("Nc1ccc(C(=O)NCC(=O)O)cc1", "inactive"),
    ("COc1cc(C(=O)NCc2ccc(OCCN(C)C)cc2)cc(OC)c1OC", "inactive"),
    ("CN(C)CCOC(=O)C(c1ccccc1)C1(O)CCCC1 (configuration not stated)", "inactive"),
    ("O=C1C(O)=C(O)C(=O)C(O)=C1O", "inactive"),
    ("CCCc1ncc(C[n+]2ccccc2C)c(N)n1", "inactive"),
]

Answer briefly: the call reported for COc1ccc(C(=O)c2ccccc2)c(O)c1 in this assay.
inactive

Answer briefly: the call reported for CC(=O)O[C@]1(C(C)=O)CC[C@H]2[C@@H]3C=C(C)C4=CC(=O)CC[C@]4(C)[C@H]3CC[C@@]21C in this assay.
active

Answer briefly: the call reported for NC(N)=NCc1cccc(I)c1 in this assay.
inactive

Answer briefly: the call reported for COc1cc(N)c(Cl)cc1C(=O)NC1CCN(Cc2ccccc2)CC1 in this assay.
inactive

Answer briefly: the call reported for CCCCN1C[C@H](O)[C@@H](O)[C@H](O)[C@H]1CO in this assay.
inactive

Answer briefly: the call reported for CCOc1ccc(NC(C)=O)cc1 in this assay.
inactive

Answer briefly: the call reported for CCCCc1cc2ccccc2c(OCCN(C)C)n1 in this assay.
inactive
